TARGET UNDER TEST: KDM4C (Homo sapiens, UniProt Q9H3R0)
Construct: Full length of KDM5B and KDM4C protein were purchased from Active Motif; purchased Active Motif 31858
Sequence (Q9H3R0 whole entry): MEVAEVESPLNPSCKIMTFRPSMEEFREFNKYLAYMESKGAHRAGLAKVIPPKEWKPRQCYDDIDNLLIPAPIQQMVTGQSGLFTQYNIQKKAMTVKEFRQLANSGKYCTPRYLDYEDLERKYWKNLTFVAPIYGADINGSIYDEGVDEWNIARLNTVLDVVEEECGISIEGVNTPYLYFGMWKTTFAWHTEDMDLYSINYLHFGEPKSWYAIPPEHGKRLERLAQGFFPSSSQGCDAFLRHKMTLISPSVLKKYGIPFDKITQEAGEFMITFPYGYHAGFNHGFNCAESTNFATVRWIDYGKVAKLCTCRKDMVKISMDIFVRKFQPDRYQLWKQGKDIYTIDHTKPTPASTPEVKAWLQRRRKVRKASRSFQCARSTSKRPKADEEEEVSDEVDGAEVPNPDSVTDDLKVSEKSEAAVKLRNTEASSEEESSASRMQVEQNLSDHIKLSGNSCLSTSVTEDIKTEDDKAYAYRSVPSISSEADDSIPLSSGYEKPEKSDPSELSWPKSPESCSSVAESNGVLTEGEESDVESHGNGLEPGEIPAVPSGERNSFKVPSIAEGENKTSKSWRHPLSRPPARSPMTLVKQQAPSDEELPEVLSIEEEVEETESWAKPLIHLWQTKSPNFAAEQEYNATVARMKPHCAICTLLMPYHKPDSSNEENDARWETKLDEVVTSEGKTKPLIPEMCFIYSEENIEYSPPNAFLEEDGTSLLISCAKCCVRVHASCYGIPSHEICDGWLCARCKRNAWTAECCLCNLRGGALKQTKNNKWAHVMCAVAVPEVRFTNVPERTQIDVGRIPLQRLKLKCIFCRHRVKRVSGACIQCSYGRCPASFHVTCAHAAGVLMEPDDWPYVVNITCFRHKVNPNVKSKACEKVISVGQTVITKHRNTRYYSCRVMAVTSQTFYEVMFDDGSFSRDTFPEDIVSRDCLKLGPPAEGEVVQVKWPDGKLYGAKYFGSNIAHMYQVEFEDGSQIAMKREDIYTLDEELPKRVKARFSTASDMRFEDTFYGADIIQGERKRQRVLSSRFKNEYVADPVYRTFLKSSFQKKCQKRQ
TEST SUMMARY: KDM4C AlphaScreen assay
Type: biochemical
CONDITION: AlphaScreen; full length KDM4C 0.2 nM; biotinylated H3K9Me3 peptide 3 nM; 30 minutes at room temperature
Form field: IC50 (one value per entry).
The answer is to be given in nM; state only the numeric part.

Example cases with answers are listed next.
INSERT INTO assay_data (compound, units_of_measure, measured) VALUES
  ('CC(C)c1c(O)nc(-n2ccnc2)nc1-c1cnn(C2CCCC2)c1', 'nM', 1340),
  ('CC(C)c1c(O)nc(-n2ccnc2)nc1OCC1CCOCC1', 'nM', 3680),
  ('CC(C)c1c(O)nc(-n2ccnc2)nc1OCc1ccncn1', 'nM', 2410),
  ('CC(C)c1c(O)nc(-c2cncs2)nc1OCC(C)(C)CO', 'nM', 12400),
  ('COc1nc(-n2ccnc2)nc(O)c1C(C)C', 'nM', 1460);

Given the compound `CC(C)c1c(O)nc(-c2cncs2)nc1-c1cnn(C2CCNCC2)c1` , what is its reported IC50?
13900

What about this compound? `CC(C)c1c(O)nc(-n2ccnc2)nc1OCC(=O)N1CCOCC1`
2130

Also `CC(C)Cc1ccc(-c2nc(-n3ccnc3)nc(O)c2C(C)C)cc1` , if possible.
10000
